Numbers sourced from patent US20200270125A1.

Provide the recorded pEC50 for the entries that follow.
# EXPERIMENTAL SYSTEM: T1, human MASP-3 CCP1-CCP2-SP fragment (human)
# T1 construct: limits of the assay construct are not restated; also called rMASP-3 (CCP1-CCP2-SP)
# T1 chain: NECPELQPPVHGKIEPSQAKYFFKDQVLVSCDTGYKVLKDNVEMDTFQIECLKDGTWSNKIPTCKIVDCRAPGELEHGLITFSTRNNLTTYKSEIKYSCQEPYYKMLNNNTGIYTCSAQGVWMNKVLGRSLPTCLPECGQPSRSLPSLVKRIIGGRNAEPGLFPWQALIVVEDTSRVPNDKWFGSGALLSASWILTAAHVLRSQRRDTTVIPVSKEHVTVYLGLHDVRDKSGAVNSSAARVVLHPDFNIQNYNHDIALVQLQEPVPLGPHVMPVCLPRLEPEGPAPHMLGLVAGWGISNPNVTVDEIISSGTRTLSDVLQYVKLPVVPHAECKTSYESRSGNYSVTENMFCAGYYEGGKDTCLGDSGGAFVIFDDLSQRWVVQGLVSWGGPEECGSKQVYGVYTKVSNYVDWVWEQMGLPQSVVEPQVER
# PROTOCOL: sandwich ELISA, MASP-3 CCP1-CCP2-SP captured by αM3-259
// pEC50 here means minus log10 of the molar concentration (mol/L)

Incoming: Bench note: what pEC50 did MASP-3 mAb 4B6 (mouse-human chimeric IgG4) (antibody, V domains shown) VH: QVQLKQSGPELVKPGASVKLSCKASGYTFTSNDINWVKQRPGQGLEWIGWIYPRDGTTKYNEEFTDKATLTVDVSSSTAFMELHSLTSEDSAVYFCSSVEDSYWGQGTLVTVSS VL: DIVMTQSPSSLAVSAGEKVTMSCKSSQSLLISRTRKNYLSWYQQKPGQSPKLLIYWASTRESGVPDRFTGSGSGTDFTLTISSVQAEDLAVYYCKQSYNLYTFGGGTKLEIKR show?
Outgoing: 9.68

Incoming: # query: pEC50 of entry MASP-3 mAb 1E7 (mouse-human chimeric IgG4) (antibody, V domains shown) VH: QVQLKQSGPELARPWASVKISCQAFYTFSRRVHFAIRDTNYWMQWVKQRPGQGLEWIGAIYPGNGDTSYNQKFKGKATLTADKSSSTAYMQLSSLTSEDSAVYYCASGSHYFDYWGQGTTLTVSS VL: DIQLTQSPAILSVSPGERVSFSCRASQSIGTSIHWYQQRTNGSPRLLIKYASESISGIPSRFSGSGSGTDFTLSINSVESEDIADYYCQQSNSWPYTFGGGTKLEIKR
Outgoing: 9.95

Incoming: # input binder: MASP-3 mAb 1A10 (mouse-human chimeric IgG4) (antibody, V domains shown, The light chain of 1A10 was not identified) VH: QVQLKQSGPELVKPGASVKLSCKASGYTFTSNDINWVKQRPGQGLEWIGWIYPRDGTTKYNEKFTDKATLTVDVSSSTAFMELHRLTSEDSAVYFCSSVEDSYWGQGTLVTVSS VL: DIVMTQSPSSLAVSAGEKVTMSCKSSQSLLISRTRKNYLSWYQQKPGQSPKLLIYWASTRESGVPDRFTGSGSGTDFTLTISSVQAEDLAVYYCKQSYNLYTFGGGTKLEIKR ; wanted: its pEC50
Outgoing: 9.62

Incoming: Name the recorded pEC50 for MASP-3 mAb 13B1 (mouse-human chimeric IgG4) (antibody, V domains shown, also called mAb M3-1; M3-1) VH: QVQLKQSGAELMKPGASVKLSCKATGYTFTGKWIEWVKQRPGHGLEWIGEILPGTGSTNYNEKFKGKATFTADSSSNTAYMQLSSLTTEDSAMYYCLRSEDVWGTGTTVTVSS VL: DIVMTQSPSSLAVSAGEKVTMSCKSSQSLLNSRTRKNYLAWYQQKPGQSPKLLIYWASTRESGVPDRFTGSGSGTDFTLTISSVQAEDLAVYYCKQSYNIPTFGGGTKLEIKR .
Outgoing: 10.23

Incoming: Look up pEC50: MASP-3 mAb 1G4 (mouse-human chimeric IgG4) (antibody, V domains shown) VH: QVQLKQSGAELMKPGASVKLACKATGYTFTGYWIEWIKQRPGQGLEWIGEMLPGSGSTHYNEKFKGKATFTADTSSNTAYMQLSGLTTEDSAIYYCVRSIDYWGQGTTLTVSS VL: DVLMTQTPLSLPVSLGEQASISCRSSQSLVQSNGNTYLHWYLQKPGQSPKLLIYKVSNRFSGVPDRFSGSGSGTDFTLKISRVEAEDLGVYFCSQSTHVPPTFGGGTKLEIKR
Outgoing: 9.75

Incoming: Suppose we examine the binder MASP-3 mAb 1B11 (mouse-human chimeric IgG4) (antibody, V domains shown) VH: QVQLKQSGAELVRPGASVKLSCKASGYTFTDYYINWVKQRPGQGLEWIARIYPGSGNTYYNEKFKGKATLTAEKSSSTAYMQLSSLTSEDSAVYFCARNYYISSPWFAYWGQGTLVTVSS VL: DIVMTQSQKFMSTSVGDRVSVTCKASQNVGPNVAWYQQKPGQSPKALIYSASYRYSGVPDRFTGSGSGTDFTLTISNVQSEDLADYFCQQYNRYPLTFGAGTKLELKR ; what pEC50 value has been reported?
Outgoing: 10.23

Incoming: Would you kindly share the measured pEC50 for MASP-3 mAb 1F3 (mouse-human chimeric IgG4) (antibody, V domains shown) VH: QVQLKQSGPELVKPGASVKLSCKASGYTFTSNDINWVKQRPGQGLEWIGWIYPRDGSIKYNEKFTDKATLTVDVSSSTAYMELHSLTSEDSAVYFCSGVEDSYWGQGTLVTVSS VL: DIVMTQSPSSLAVSAGERVTMSCKSSQSLLISRTRKNYLSWYQQKPGQSPKLLIYWASTRESGVPDRFTGSGSGTDFTLTISSVQAEDLAVYYCKQSYNLYTFGGGTKLEIKR ?
Outgoing: 9.63

Incoming: pEC50 for MASP-3 mAb 15D9 (mouse-human chimeric IgG4) (antibody, V domains shown) VH: QVQLKQSGTELMKPGASVNLSCKASGYTFTAYWIEWVKQRPGHGLEWIGEILPGSGTTNYNENFKDRATFTADTSSNTAYMQLSSLTSEDSAIYYCARSYYYASRWFAFWGQGTLVTVSS VL: DIVMTQSQKFMSTSIGDRVSVTCRASQNVGPNLAWYQQKPGQSPKALIYSASYRFSGVPDRFTGSGSGTDFTLTISNVQSEDLAEYFCQQYNRYPFTFGSGTKLEIKR ?
Outgoing: 10.13

Incoming: What pEC50 value was documented for this binder, MASP-3 mAb 11B6 (mouse-human chimeric IgG4) (antibody, V domains shown) VH: QVQLKQSGAELVKPGASVKMSCKASGYTFTTYPIEWMKQNHGKSLEWIGNFHPYNGDSKYNEKFKGKATLTVEKSSSTVYLELSRLPSADSAIYYCARRHYAASPWFAHWGQGTLVTVSS VL: DIVMTQSQKFMSTSVGDRVNVTCKASQNVGPTVAWYQQKPGQSPKALIYSASYRYSGVPDRFTGSGSGTDFTLTISNVHSEDLAEYFCQQYNSYPFTFGSGTKLEIKR ?
Outgoing: 10.22

Incoming: Can you share its pEC50? I mean this binder: MASP-3 mAb 2D7 (mouse-human chimeric IgG4) (antibody, V domains shown) VH: EVQLQQSGPELVKPGASVKVSCKASGYTLTDYYMNWVKQSHGKSLEWIGDVNPNNDGTTYNQKFKGRATLTVDKSSNTASMELRSLTSEDSAVYYCAICPFYYLGKGTHFDYWGQGTSLTVSS VL: DIQMTQTPASLSASLGDRVTISCRASQDISNFLNWYQQKPNGTVKLLVFYTSRLHSGVPSRFSGSGSGAEHSLTISNLEQEDVATYFCQQGFTLPWTFGGGTKVEIKR
Outgoing: 9.91
